Quick list: Papp per entry.
assay: Permeability of the compound at pH 7.4 by PAMPA; type: ADME; settings: read-out: permeability
quantity_kind: Papp (×10⁻⁶ cm/s)

>>> print(df.to_string())
                  compound_structure_string  readout_number
0  CCC[C@@H]1C[C@H](N(C)C(C)C)CC[C@@H]1N1CC[C@H](Nc2ncnc3ccc(C(F)(F)F)cc23)C1=O            52.9
1  CC(C)N(C)[C@@H]1CC[C@H](N2CC[C@H](NC(=O)c3cccc(C(F)(F)F)c3)C2=O)[C@H](NS(C)(=O)=O)C1            59.3
2  CC(C)N(C)[C@@H]1CC[C@H](N2CC[C@H](NC(=O)c3cccc(C(F)(F)F)c3)C2=O)[C@H](N(C)S(C)(=O)=O)C1             6.5
3  CC(C)N(C)[C@@H]1CC[C@H](N2CC[C@H](Nc3ncnc4ccc(C(F)(F)F)cc34)C2=O)[C@H](CS(C)(=O)=O)C1             1.4
4  CC(C)N(C)[C@@H]1CC[C@H](N2CC[C@H](NC(=O)c3cccc(C(F)(F)F)c3)C2=O)[C@H](CS(C)(=O)=O)C1             9.4
5  CC(C)N(C)[C@@H]1CC[C@H](N2CC[C@H](Nc3ncnc4ccc(C(F)(F)F)cc34)C2=O)[C@H](NS(C)(=O)=O)C1            39.4

----------
target: C-C chemokine receptor type 2 (Homo sapiens, UniProt P41597)
Sequence (P41597 whole entry): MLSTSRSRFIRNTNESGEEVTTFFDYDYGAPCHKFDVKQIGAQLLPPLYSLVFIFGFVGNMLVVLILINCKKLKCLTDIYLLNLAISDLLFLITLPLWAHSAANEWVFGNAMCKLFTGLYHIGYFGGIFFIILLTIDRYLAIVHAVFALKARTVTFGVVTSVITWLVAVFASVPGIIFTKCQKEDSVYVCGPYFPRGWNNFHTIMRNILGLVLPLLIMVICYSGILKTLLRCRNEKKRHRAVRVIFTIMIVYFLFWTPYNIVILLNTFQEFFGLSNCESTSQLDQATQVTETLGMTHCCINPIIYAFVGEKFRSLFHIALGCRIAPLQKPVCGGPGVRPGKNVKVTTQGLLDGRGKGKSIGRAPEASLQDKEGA
quantity_kind: IC50 (nM)

>>> df
                  compound_structure_string                               system_name  units_symbol  readout_number
0  CC(C)N(C)[C@@H]1CC[C@H](N2CC[C@H](NC(=O)c3cccc(C(F)(F)F)c3)C2=O)[C@H](NS(C)(=O)=O)C1  C-C chemokine receptor type 2 (Homo sapiens, UniProt P41597)            nM             1.9

----------
experiment: Stability in human liver microsomes assessed as parent compound remaining at 3 uM measured after 10 mins; assay type: ADME, Microsome; conditions: read-out: Stability
quantity_kind: remaining at 10 min, 3 µM (%)

>>> print(df.to_string())
                  compound_structure_string  units_symbol  readout_number
0  CC(C)N(C)[C@@H]1CC[C@H](N2CC[C@H](Nc3ncnc4ccc(C(F)(F)F)cc34)C2=O)[C@H](CS(C)(=O)=O)C1             %              99
1  CC(C)N(C)[C@@H]1CC[C@H](N2CC[C@H](NC(=O)c3cccc(C(F)(F)F)c3)C2=O)[C@H](CS(C)(=O)=O)C1             %             100
2  CC(C)N(C)[C@@H]1CC[C@H](N2CC[C@H](NC(=O)c3cccc(C(F)(F)F)c3)C2=O)[C@H](NS(C)(=O)=O)C1             %              85
3  CCC[C@@H]1C[C@H](N(C)C(C)C)CC[C@@H]1N1CC[C@H](Nc2ncnc3ccc(C(F)(F)F)cc23)C1=O             %             100
4  CC(C)N(C)[C@@H]1CC[C@H](N2CC[C@H](Nc3ncnc4ccc(C(F)(F)F)cc34)C2=O)[C@H](NS(C)(=O)=O)C1             %              58
5  CC(C)N(C)[C@@H]1CC[C@H](N2CC[C@H](NC(=O)c3cccc(C(F)(F)F)c3)C2=O)[C@H](N(C)S(C)(=O)=O)C1             %             100
6  CC(=O)N[C@@H]1C[C@H](N(C)C(C)C)CC[C@@H]1N1CC[C@H](Nc2ncnc3ccc(C(F)(F)F)cc23)C1=O             %              95
